Data credit: ChEMBL document CHEMBL2417466

Test system: DNA
Assay explanation: Binding affinity to calf thymus DNA at 5 uM after 18 hrs by UV-visible spectrophotometric analysis
Format: nucleic-acid assay
Run parameters: Bos taurus
Property label: ΔTm (°C)
API: value field is a number in °C; no unit string.

The following molecules have reported results that may help.
CCOC(=O)c1csc(NC(=O)c2csc(NC(=O)c3csc(NC(=O)CCCOc4cc5c(cc4OC)C(=O)N4CCC[C@H]4C=N5)n3)n2)n1 10.9
CCOC(=O)c1nc(NC(=O)c2nc(NC(=O)c3nc(NC(=O)CCCOc4cc5c(cc4OC)C(=O)N4CCC[C@H]4C=N5)cn3C)cn2C)cn1C 12
CCOC(=O)c1csc(NC(=O)c2cc(NC(=O)c3csc(NC(=O)CCCOc4cc5c(cc4OC)C(=O)N4CCC[C@H]4C=N5)n3)cn2C)n1 7.8
COC(=O)c1cc(NC(=O)c2cc(NC(=O)c3cc(NC(=O)CCCOc4cc5c(cc4OC)C(=O)N4CCC[C@H]4C=N5)cn3C)cn2C)cn1C 20.2
CCOC(=O)c1csc(NC(=O)c2cc(NC(=O)c3cc(NC(=O)CCCOc4cc5c(cc4OC)C(=O)N4CCC[C@H]4C=N5)cn3C)cn2C)n1 18.6
CCOC(=O)c1csc(NC(=O)c2csc(NC(=O)c3cc(NC(=O)CCCOc4cc5c(cc4OC)C(=O)N4CCC[C@H]4C=N5)cn3C)n2)n1 8.4
COC(=O)c1cc(NC(=O)c2cc(NC(=O)c3csc(NC(=O)CCCOc4cc5c(cc4OC)C(=O)N4CCC[C@H]4C=N5)n3)cn2C)cn1C 18.2

With those in mind, consider the next molecule.
Entry `CCOC(=O)c1nc(NC(=O)c2cc(NC(=O)c3cc(NC(=O)CCCOc4cc5c(cc4OC)C(=O)N4CCC[C@H]4C=N5)cn3C)cn2C)cn1C` : reported ΔTm = ? 18.7
